# Test system: KIT (human), P10721 [V559D/T670I]
# Sequence (P10721 whole entry V559D/T670I, looked up): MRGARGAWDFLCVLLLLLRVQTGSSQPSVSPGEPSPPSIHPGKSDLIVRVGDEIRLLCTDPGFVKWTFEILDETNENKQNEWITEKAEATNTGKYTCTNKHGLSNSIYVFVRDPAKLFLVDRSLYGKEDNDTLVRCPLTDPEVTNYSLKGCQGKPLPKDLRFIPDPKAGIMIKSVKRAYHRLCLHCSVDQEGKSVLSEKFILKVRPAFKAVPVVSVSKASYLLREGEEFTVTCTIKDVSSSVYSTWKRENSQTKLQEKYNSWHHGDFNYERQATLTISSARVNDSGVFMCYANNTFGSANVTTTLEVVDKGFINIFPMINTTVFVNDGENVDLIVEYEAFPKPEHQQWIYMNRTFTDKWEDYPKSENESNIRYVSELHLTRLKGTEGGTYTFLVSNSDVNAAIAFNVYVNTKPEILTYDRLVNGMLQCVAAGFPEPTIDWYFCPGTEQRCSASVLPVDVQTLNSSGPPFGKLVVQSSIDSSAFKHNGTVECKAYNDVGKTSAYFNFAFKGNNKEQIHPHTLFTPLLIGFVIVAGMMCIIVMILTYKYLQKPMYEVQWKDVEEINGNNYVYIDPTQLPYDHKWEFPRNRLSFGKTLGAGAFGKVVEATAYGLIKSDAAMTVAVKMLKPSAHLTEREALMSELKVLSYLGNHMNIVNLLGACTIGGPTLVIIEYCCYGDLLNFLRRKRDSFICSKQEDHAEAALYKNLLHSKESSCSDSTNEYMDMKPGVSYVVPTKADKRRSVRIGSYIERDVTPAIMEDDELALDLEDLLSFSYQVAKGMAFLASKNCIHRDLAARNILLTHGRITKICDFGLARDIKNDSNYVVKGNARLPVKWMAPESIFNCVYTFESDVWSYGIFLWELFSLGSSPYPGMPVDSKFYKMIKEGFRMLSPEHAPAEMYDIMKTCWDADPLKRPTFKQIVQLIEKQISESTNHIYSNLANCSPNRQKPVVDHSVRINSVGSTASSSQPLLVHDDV
# METHOD SUMMARY: KINOMEscan competition binding
# RUN PARAMETERS: compound 10.0 µM
Entries and their measured kinase still bound, per cent of control follow.
READOUT: kinase still bound, per cent of control (%)

| COMPOUND SMILES | READOUT | VALUE OBSERVED |
| --- | --- | --- |
| Cn1cc(C2=C(c3ccc(Cl)cc3Cl)C(=O)NC2=O)c2ccccc21 | kinase still bound, per cent of control | 92 |
| O=C1Nc2cc(Br)ccc2/C1=C1/Nc2ccccc2/C1=N\O | kinase still bound, per cent of control | 0 |
| COc1ccc(CNC(=O)Nc2ncc([N+](=O)[O-])s2)cc1 | kinase still bound, per cent of control | 86 |
| Cc1cnc(-c2cnc(NCCNc3ccc(C#N)cn3)nc2-c2ccc(Cl)cc2Cl)[nH]1 | kinase still bound, per cent of control | 91 |

---

# SYSTEM NAME: YSK4 (human)
# METHOD SUMMARY: KINOMEscan competition binding
# RUN PARAMETERS: compound 10.0 µM
READOUT: kinase still bound, per cent of control

| COMPOUND SMILES | VALUE OBSERVED |
| --- | --- |
| Cn1cc(C2=C(c3ccc(Cl)cc3Cl)C(=O)NC2=O)c2ccccc21 | 12% |
| O=C1Nc2cc(Br)ccc2/C1=C1/Nc2ccccc2/C1=N\O | 3.8% |
| Cc1cnc(-c2cnc(NCCNc3ccc(C#N)cn3)nc2-c2ccc(Cl)cc2Cl)[nH]1 | 30% |
| COc1ccc(CNC(=O)Nc2ncc([N+](=O)[O-])s2)cc1 | 49% |

---

# SYSTEM NAME: CDC42BPB (human)
# METHOD SUMMARY: KINOMEscan competition binding
# RUN PARAMETERS: compound 10.0 µM
READOUT: kinase still bound, per cent of control

| COMPOUND SMILES | READOUT | VALUE OBSERVED |
| --- | --- | --- |
| Cc1cnc(-c2cnc(NCCNc3ccc(C#N)cn3)nc2-c2ccc(Cl)cc2Cl)[nH]1 | kinase still bound, per cent of control | 100% |
| COc1ccc(CNC(=O)Nc2ncc([N+](=O)[O-])s2)cc1 | kinase still bound, per cent of control | 75% |
| O=C1Nc2cc(Br)ccc2/C1=C1/Nc2ccccc2/C1=N\O | kinase still bound, per cent of control | 90% |
| Cn1cc(C2=C(c3ccc(Cl)cc3Cl)C(=O)NC2=O)c2ccccc21 | kinase still bound, per cent of control | 97% |

---

# SYSTEM NAME: EPHB6 (human) (UniProt O15197)
# Sequence (O15197 whole entry, looked up): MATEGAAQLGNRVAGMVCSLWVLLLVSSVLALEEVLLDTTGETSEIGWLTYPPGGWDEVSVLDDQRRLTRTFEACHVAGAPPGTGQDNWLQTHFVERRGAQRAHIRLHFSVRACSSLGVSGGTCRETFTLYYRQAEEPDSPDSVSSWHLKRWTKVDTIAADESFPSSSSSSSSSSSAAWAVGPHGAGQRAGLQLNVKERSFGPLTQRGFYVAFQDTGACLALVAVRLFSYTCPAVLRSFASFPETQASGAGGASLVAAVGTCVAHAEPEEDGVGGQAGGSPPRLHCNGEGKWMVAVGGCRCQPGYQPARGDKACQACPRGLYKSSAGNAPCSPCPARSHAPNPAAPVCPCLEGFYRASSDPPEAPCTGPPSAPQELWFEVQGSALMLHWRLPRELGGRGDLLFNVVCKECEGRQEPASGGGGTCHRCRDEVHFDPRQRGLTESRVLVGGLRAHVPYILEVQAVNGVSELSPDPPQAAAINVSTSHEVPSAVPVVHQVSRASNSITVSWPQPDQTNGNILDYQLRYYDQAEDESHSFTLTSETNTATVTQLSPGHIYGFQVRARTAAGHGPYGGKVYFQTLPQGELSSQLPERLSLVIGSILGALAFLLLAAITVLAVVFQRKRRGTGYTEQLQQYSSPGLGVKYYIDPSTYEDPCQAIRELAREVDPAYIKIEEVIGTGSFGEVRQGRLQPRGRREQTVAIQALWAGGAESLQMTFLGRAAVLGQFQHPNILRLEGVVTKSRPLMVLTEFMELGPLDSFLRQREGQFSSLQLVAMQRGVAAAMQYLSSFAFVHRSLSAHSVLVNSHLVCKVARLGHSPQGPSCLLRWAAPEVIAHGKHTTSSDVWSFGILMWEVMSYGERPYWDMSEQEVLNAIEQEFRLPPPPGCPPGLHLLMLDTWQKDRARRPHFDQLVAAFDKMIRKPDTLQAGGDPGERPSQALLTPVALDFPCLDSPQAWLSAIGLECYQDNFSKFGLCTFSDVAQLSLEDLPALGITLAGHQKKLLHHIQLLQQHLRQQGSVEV
# METHOD SUMMARY: KINOMEscan competition binding
# RUN PARAMETERS: compound 10.0 µM
Entries and their measured kinase still bound, per cent of control follow.
READOUT: kinase still bound, per cent of control

| COMPOUND SMILES | VALUE OBSERVED |
| --- | --- |
| Cc1cnc(-c2cnc(NCCNc3ccc(C#N)cn3)nc2-c2ccc(Cl)cc2Cl)[nH]1 | 100% |
| O=C1Nc2cc(Br)ccc2/C1=C1/Nc2ccccc2/C1=N\O | 0.3% |
| COc1ccc(CNC(=O)Nc2ncc([N+](=O)[O-])s2)cc1 | 100% |
| Cn1cc(C2=C(c3ccc(Cl)cc3Cl)C(=O)NC2=O)c2ccccc21 | 100% |

Numbers sourced from the kinase profiling compilation of Christmann-Franck et al. (2016).
